# target.or.system: human Muscarinic, M4 Receptor, CHRM4 (gene 1132)
# test.details: NVS_GPCR_hM4: NovaScreen (NVS) G Protein-Coupled Receptor Assay for human Muscarinic, M4 Receptor (AID 2283274)
Inconclusive results are not listed. Calls of active or inactive are those of the source. How the source made its calls: active means hit-call score of the fitted dose curve at least 0.9, where 1 is the maximum; inconclusive means response in the unintended direction; inactive means score below 0.9.
property.name: AC50

CN(C)C(=O)NC1(c2ccccc2)CCN(CCC[C@]2(c3ccc(Cl)c(Cl)c3)CCCN(C(=O)c3ccccc3)C2)CC1: 3.46 µM (active)
CCCCCCCCCCCCCCOS(=O)(=O)O: 31.9 µM (active)
Cn1cnc2c1c(=O)[nH]c(=O)n2C: inactive
Cc1cc(SC2=C(O)C[C@@](CCc3ccc(N)cc3)(C(C)C)OC2=O)c(C(C)(C)C)cc1CO: inactive
